- Tested on: HepG2
- procedure summary: cell viability relative to DMSO; higher = less toxic
- measurement setup: 72 h; 10000 nM
Form field: cell viability (one value per entry).
metric name: cell viability (%)

CNC(C)(C)Cc1ccccc1 [mephentermine] : 91.4
COC(=O)Nc1ccc2[nH]cc(CCNC(C)=O)c2c1 : 91
CN(C)CCOc1cc(-c2cn[nH]c2)ccc1NC(=O)C1COc2ccccc2O1 (configuration not stated) [SR-3677] : 88.4
O=C1CN=C(c2cccc(Br)c2)c2oc3ccccc3c2N1 [5-BDBD] : 92.5
C[C@H]1C[C@H]2[C@@H]3CCC4=CC(=O)C=C[C@]4(C)[C@@]3(F)[C@@H](O)C[C@]2(C)[C@@]1(O)C(=O)CO [betamethasone] : 89.7
CC(C)C[C@H](NC(=O)CNC(=O)[C@H](Cc1ccc(O)cc1)NC(=O)[C@H](CO)NC(=O)[C@H](Cc1c[nH]c2ccccc12)NC(=O)[C@H](Cc1cnc[nH]1)NC(=O)[C@@H]1CCC(=O)N1)C(=O)N[C@@H](CCCNC(=N)N)C(=O)N1CCC[C@H]1C(=O)NCC(N)=O [gonadorelin] : 96.2
CCC1(CC)C(=O)NC(=O)N(C)C1=O [metharbital] : 103
CC(=O)N[C@H]1[C@H]([C@H](O)[C@H](O)CO)OC(O)(C(=O)O)C[C@@H]1O (mixture of isomers) [aceneuramic-acid] : 86.1
O=c1cc(N2CCOCC2)oc2c(-c3ccccc3)cccc12 : 86.1
CC1CCc2cc(F)cc3c(=O)c(C(=O)O)cn1c23 (configuration not stated) [flumequine] : 92.7
CCCn1c(=O)c2[nH]c(-c3cnn(Cc4cccc(C(F)(F)F)c4)c3)nc2n(CC)c1=O [GS-6201] : 96.8
COc1cc(N2CCOCC2)ccc1Nc1ncc(Cl)c(Nc2ccccc2NS(C)(=O)=O)n1 : 23.1
N#CCC(=O)c1ccccc1 : 96.2
Clc1ccc(COC(Cn2ccnc2)c2ccc(Cl)cc2Cl)cc1 (configuration not stated) [econazole] : 72.6
C[n+]1ccc(C(=O)NCc2ccccc2)cc1 [enisamium-iodide] : 81.7
BrC1C(Br)C(Br)C(Br)C(Br)C1Br (configuration not stated) [1,2,3,4,5,6-hexabromocyclohexane] : 90.2
O=C1C(CC[S+]([O-])c2ccccc2)C(=O)N(c2ccccc2)N1c1ccccc1 (configuration not stated) [sulfinpyrazone] : 110
CC(C)NNC(=O)c1ccncc1 [iproniazid] : 105
O=C(O)c1cccc(-c2noc(-c3ccccc3F)n2)c1 [ataluren] : 90.9
Oc1ccc(OCc2ccccc2)cc1 [monobenzone] : 90.2
COc1cc(C#N)ccc1S(=O)(=O)Nc1ccc2c(c1)cc(C)c(=O)n2C [NI-57] : 85.3
CCCCCC(O)CCCC(=O)O (configuration not stated) : 92.5
NNC(=O)c1ccncc1 [isoniazid] : 93.7
COc1cc(C2Oc3cc([C@H]4Oc5cc(O)cc(O)c5C(=O)[C@@H]4O)ccc3OC2CO)ccc1O (some centres not stated) [silibinin] : 93.1
O=C(O)c1ccccc1NC(=O)N1CCC(c2ccccc2C(F)(F)F)CC1 [A-1120] : 108
CNCCC=C1c2ccccc2C=Cc2ccccc21 [norcyclobenzaprine] : 89.3
CCOc1ccc(Nc2nc(-c3c(C)nc4ccccn34)cs2)cc1 [JK-184] : 40.1

---

- Tested on: U2OS
- procedure summary: cell viability relative to DMSO; higher = less toxic
- measurement setup: 72 h; 1000 nM
Form field: cell viability (one value per entry).
metric name: cell viability (%)

N#CCC(=O)c1ccccc1 : 98.3
COc1cn(-c2ccc(-n3cccn3)cc2F)nc(-c2ccnn2-c2ccccc2)c1=O : 101
O=C1NCCNC1c1cccs1 (centres undefined) : 96.2
BrC1C(Br)C(Br)C(Br)C(Br)C1Br (centres undefined) : 95.1

---

Recorded cell viability values for a group of molecules are listed next.
- Tested on: Vero E6
- procedure summary: cell viability relative to DMSO; higher = less toxic
- measurement setup: 72 h; 10 nM
metric name: cell viability (%)

N=C(N)NCCC[C@@H](NC(=O)[C@@H]1CCCN1C(=O)[C@@H]1CSSCCC(=O)N[C@@H](Cc2ccc(O)cc2)C(=O)N[C@@H](Cc2ccccc2)C(=O)N[C@@H](CCC(N)=O)C(=O)N[C@@H](CC(N)=O)C(=O)N1)C(=O)NCC(N)=O [desmopressin-acetate] : 108
O=c1[nH]c(=O)n([C@H]2C[C@H](O)[C@@H](CO)O2)cc1I : 104
C/C(=N\Nc1nnc2c(n1)[nH]c1c(C)cccc12)c1ccccn1 : 100
C[n+]1cc2c3c(ccc2c2ccc4cc5c(cc4c21)OCO5)OCO3 [sanguinarium-chloride] : 99.8
O=C(O)c1ccccc1NC(=O)N1CCC(c2ccccc2C(F)(F)F)CC1 : 100

---

// values below are reported relative viability EC50
- Test system: Caco-2
- procedure summary: relative viability EC50 (midpoint between 100% and the lowest measured viability); higher = less toxic
- measurement setup: 72 h
metric name: relative viability EC50

COc1cc(Br)c(Nc2nc(-c3c(C)nc4ncccn34)cs2)c(Br)c1 [PTC-209] : 1.5 µM
CN1CCN(C(=O)c2nc3ccc(Cl)cc3[nH]2)CC1 : > 10 µM
CNC(C)(C)Cc1ccccc1 [mephentermine] : > 10 µM
COC(=O)N[C@H](C(=O)N1CCC[C@H]1c1nc(-c2ccc3c(c2)O[C@@H](c2ccccc2)n2c-3cc3cc(-c4c[nH]c([C@@H]5CCCN5C(=O)[C@@H](NC(=O)OC)C(C)C)n4)ccc32)c[nH]1)C(C)C [elbasvir] : > 10 µM

---

- Tested on: Vero E6
- procedure summary: cell viability relative to DMSO; higher = less toxic
- measurement setup: 72 h; 10 nM
Consider the following compounds and their measured cell viability readings.
metric name: cell viability (%)

CCCCCCOc1nsnc1C1=CCCN(C)C1 : 104
C[C@]12CC/C(=N\OCCN)C[C@@H]1C(=O)C[C@@H]1[C@@H]2CC[C@]2(C)C(=O)CC[C@@H]12 : 105
Cn1cc(C(=O)c2cccc3ccccc23)cc1C(=O)O : 99.7
COc1cc2ncnc(Nc3ccc(O)c(Br)c3)c2cc1OC : 98.4
O=c1cc(-c2ccc(O)cc2)oc2cc(O)cc(O)c12 : 101
CC(=O)N[C@H]1[C@H]([C@H](O)[C@H](O)CO)OC(O)(C(=O)O)C[C@@H]1O (mixture of isomers) : 97.4
CCO[C@@H](Cc1ccc(OCCn2c(C)ccc2-c2ccc(SC)cc2)cc1)C(=O)O : 96.3
NCC(CS(=O)(=O)O)c1ccc(Cl)cc1 (stereo not drawn) : 98.6
O=C(NOCCO)c1cc(CN2OCCCC2=O)c(F)c(F)c1Nc1ccc(I)cc1F : 85.2
O=C(O)CCc1nc(-c2ccccc2)c(-c2ccccc2)o1 : 97.5
O=C(O)CNC(=O)c1c(O)c2ccccc2n(Cc2ccccc2)c1=O : 99.7
CC(C)N1CCN(c2ccc(OCC3COC(Cn4cncn4)(c4ccc(Cl)cc4Cl)O3)cc2)CC1 (stereo not drawn) : 96.8
COc1cc(O)c(C(=O)c2ccccc2)cc1S(=O)(=O)O : 99.1
O=S(=O)(c1ccccc1F)N1CCOc2c(N3CCNCC3)cccc21 : 105
[I-].[K+] [potassium-iodide] : 99.7
COc1ccc(OC)c(C(O)C(C)N)c1 (stereo not drawn) : 107
Cn1ncc(Cl)c1-c1cc(C(=O)N[C@H](CN)Cc2cccc(F)c2)sc1Cl : 101
CC[C@]12CCCN3CCc4c(n(c5ccccc45)[C@@](O)(C(=O)OC)C1)[C@@H]32 : 89.9
Oc1ccc2ccccc2c1 : 99.5
CCOC(=O)c1ccc(N2NC(=O)/C(=C/c3ccc([N+](=O)[O-])o3)C2=O)cc1 : 103
CN1CCN(C(=O)c2nc3ccc(Cl)cc3[nH]2)CC1 : 106
COc1cc(C2Oc3cc([C@H]4Oc5cc(O)cc(O)c5C(=O)[C@@H]4O)ccc3OC2CO)ccc1O (stereo partly drawn) : 106
COc1cc(/C=C(\C#N)C(N)=O)cc(CSc2nc3ccccc3s2)c1O : 97

---

- System: Calu-3
- procedure summary: cell viability relative to DMSO; higher = less toxic
- measurement setup: 72 h; 100 nM
metric name: cell viability (%)

O=C(OCC(O)CO)c1ccccc1Nc1ccnc2c(C(F)(F)F)cccc12 (stereo unspecified) [floctafenine] : 95.9
CN(C/C=C/C#CC(C)(C)C)Cc1cccc2ccccc12 [terbinafine] : 106
C[n+]1cc2c3c(ccc2c2ccc4cc5c(cc4c21)OCO5)OCO3 [sanguinarium-chloride] : 83.9
O=c1cc(-c2ccc(O)cc2)oc2cc(O)cc(O)c12 [apigenin] : 101
O=S(=O)(c1ccccc1F)N1CCOc2c(N3CCNCC3)cccc21 [R-1485] : 98.8
O=C(O)c1cc(O)c2ccc(Cl)cc2n1 [7-chlorokynurenic-acid] : 98.4
Oc1nc(O)c2nc(O)[nH]c2n1 [uric-acid] : 93.5
CN(C(=O)/C=C/c1ccoc1)[C@@H]1CC[C@@]2(O)[C@H]3Cc4ccc(O)c5c4[C@@]2(CCN3CC2CC2)[C@H]1O5 [nalfurafine] : 106
Cc1nnc2ccc(-c3cccc(C(F)(F)F)c3)nn12 : 95
OC[C@H]1O[C@H](O)C[C@@H](O)[C@@H]1O [2-deoxyglucose] : 111
CN[C@@H](C)C(=O)N[C@H](C(=O)N1CCC[C@H]1C(=O)Nc1sc(-c2ncco2)nc1-c1ccccc1)C1CCCCC1 [CUDC-427] : 86.5
CONC(=N)c1ccc(-c2ccc(-c3ccc(C(=N)NOC)cc3)o2)cc1 [pafuramidine] : 95.4
CCc1cc2c(cc1CC)CC(NC[C@H](O)c1ccc(O)c3[nH]c(=O)ccc13)C2 [indacaterol] : 112
NCC(CS(=O)(=O)O)c1ccc(Cl)cc1 (stereo unspecified) [saclofen] : 94.8
COc1cc(-c2ncn(/C=C\C(=O)OC(C)C)n2)cc(C(F)(F)F)c1 [KPT-185] : 81.8
COc1cc([C@@H]2c3cc4c(cc3[C@@H](O[C@@H]3O[C@@H]5CO[C@@H](c6cccs6)O[C@H]5[C@H](O)[C@H]3O)[C@H]3COC(=O)[C@H]23)OCO4)cc(OC)c1O [teniposide] : 75.8
CCN1C(=O)CNc2ncc(-c3ccc(-c4nc[nH]n4)nc3C)nc21 [CC-115] : 91.9
O=C(Oc1cc(S(=O)(=O)c2ccccc2)ccc1[N+](=O)[O-])c1ccc(Cl)cc1 : 92.5
CN1[C@@H]2C[C@@H](O)C[C@H]1[C@@H]1O[C@@H]12 [scopine] : 98.8
c1nc(CC2CCNCC2)c[nH]1 [immepip] : 111
CC(=O)Nc1cccc2c1c(Sc1ccc(Cl)cc1)c(C)n2CC(=O)O [AZD1981] : 89.7
